The values you see were collected from patent US9540337B2.

Target Or System: Human GGT1 (hGGT) (Homo sapiens, UniProt P19440)
Sequence (P19440 381-569 limits assumed): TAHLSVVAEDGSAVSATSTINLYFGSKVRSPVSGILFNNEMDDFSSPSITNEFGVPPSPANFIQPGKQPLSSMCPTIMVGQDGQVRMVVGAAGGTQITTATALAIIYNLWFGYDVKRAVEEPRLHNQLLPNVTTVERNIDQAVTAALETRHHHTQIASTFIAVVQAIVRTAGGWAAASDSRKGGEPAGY
Sequence (P19440 27-380 limits assumed): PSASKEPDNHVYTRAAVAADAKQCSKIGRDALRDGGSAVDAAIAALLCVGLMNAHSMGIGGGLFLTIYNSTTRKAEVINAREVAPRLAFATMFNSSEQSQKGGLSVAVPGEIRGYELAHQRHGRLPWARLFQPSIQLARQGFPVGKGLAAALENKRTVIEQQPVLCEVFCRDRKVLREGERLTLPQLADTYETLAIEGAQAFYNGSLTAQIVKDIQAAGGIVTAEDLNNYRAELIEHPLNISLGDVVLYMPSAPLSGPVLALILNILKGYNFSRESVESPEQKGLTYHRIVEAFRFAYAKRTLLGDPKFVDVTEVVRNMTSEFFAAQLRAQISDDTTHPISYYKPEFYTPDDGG
Assay Info: D-GpNA Hydrolysis Assay (release of pNA, 405 nm, pH 7.4)
What pKi was measured for each of the following?
Give bare numbers, as −log10 of the molar value.

Solved cases (4 shown):
COc1ccc(Cc2nnc(NS(=O)(=O)c3cccc(Cl)c3)s2)cc1 [Compound 3]	4.13
COc1ccc(Cc2nnc(NS(=O)(=O)c3ccc(OC)cc3)s2)cc1 [Compound 9]	2.42
CN(C)c1ccc(Cc2nnc(NS(=O)(=O)c3ccc(N)cc3)s2)cc1 [Compound 27]	3.74
COc1ccc(Cc2nnc(NS(=O)(=O)c3ccc(Cl)cc3Cl)s2)cc1 [Compound 4]	4.12

Next up:
Using known records, supply pKi for Nc1ccc(S(=O)(=O)Nc2nnc(Cc3ccc(Cl)cc3)s2)cc1 [Compound 28]
4.25
